# SYSTEM: UniProtKB P08069
# Sequence (P08069 31-736 limits assumed): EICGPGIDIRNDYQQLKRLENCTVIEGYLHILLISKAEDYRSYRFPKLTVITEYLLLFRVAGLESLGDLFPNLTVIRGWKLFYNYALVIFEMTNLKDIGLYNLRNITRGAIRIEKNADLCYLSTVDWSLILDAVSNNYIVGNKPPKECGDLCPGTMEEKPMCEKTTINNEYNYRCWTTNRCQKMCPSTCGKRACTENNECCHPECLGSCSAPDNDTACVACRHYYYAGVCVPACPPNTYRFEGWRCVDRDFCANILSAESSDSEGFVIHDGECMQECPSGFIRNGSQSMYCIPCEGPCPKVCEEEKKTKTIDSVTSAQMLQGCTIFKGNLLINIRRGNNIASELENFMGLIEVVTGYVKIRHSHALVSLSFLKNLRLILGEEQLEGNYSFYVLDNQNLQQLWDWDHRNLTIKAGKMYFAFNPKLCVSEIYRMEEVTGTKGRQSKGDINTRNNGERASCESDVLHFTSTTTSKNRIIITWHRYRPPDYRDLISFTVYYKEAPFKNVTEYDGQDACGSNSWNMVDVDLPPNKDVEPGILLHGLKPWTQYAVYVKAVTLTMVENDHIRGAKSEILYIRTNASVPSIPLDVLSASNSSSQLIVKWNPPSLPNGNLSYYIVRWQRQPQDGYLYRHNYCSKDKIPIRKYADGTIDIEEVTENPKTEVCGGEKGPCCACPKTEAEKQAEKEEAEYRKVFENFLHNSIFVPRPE
# Sequence (P08069 741-1367 limits assumed): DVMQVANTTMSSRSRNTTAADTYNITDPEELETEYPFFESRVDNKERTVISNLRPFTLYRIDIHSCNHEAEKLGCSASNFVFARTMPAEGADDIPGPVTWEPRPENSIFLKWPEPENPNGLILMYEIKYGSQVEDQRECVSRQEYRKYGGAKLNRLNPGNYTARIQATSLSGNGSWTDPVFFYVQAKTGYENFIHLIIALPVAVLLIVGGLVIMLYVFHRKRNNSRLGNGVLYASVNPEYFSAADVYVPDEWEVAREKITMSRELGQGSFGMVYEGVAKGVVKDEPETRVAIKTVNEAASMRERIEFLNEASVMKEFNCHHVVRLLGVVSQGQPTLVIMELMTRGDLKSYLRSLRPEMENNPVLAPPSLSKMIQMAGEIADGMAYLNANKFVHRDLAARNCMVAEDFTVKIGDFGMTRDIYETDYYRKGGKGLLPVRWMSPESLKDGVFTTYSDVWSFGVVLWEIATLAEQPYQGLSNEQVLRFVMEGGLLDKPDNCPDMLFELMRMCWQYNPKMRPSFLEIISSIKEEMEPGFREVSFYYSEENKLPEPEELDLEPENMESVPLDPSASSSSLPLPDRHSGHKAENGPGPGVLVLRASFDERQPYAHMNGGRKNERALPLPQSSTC
# PROCEDURE SUMMARY: Kinase Inhibition Assay
PARAMETER: pIC50
Interpret pIC50 as the negative base-10 log of the concentration measured in mol/L.

Query: Please list pIC50 recorded for the molecule `CCc1cc(Nc2ncc(Br)c(Nc3ccc4ncccc4c3P(C)(C)=O)n2)c(OC)cc1N1CCC(N2CCN(C)CC2)CC1`
Response: 8.02

Where do the numbers come from? From BindingDB's records for patent US20240352053.
